All values here come from the supplement of paper PMC11208160.

- procedure summary: recombinant UMI read abundance after kanamycin selection (control-corrected) (log10(CPM+1)); higher = more efficient recombination; extreme values may be limits of the assay; sequences stand for … in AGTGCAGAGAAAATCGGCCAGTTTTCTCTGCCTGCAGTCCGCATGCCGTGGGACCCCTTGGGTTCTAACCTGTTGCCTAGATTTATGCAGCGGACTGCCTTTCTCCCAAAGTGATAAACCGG…AGGTTGGTTTCACT; site = the 11-nt donor;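 note: IS621 bridge recombinase in Escherichia coli cells against a fixed T5 target plasmid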
recombinant UMI read abundance (log10) of 0.8 or higher: YES. Under 0.8: NO.

Qu. Tell me whether recombinant UMI read abundance (log10) is at least 0.8 here: ACAAGGGCATGGACCGGTTTTCCCGGTAATCCGTATTTGAC (site ACAAGGGCTGT)
Ans. YES

Qu. Query CCCTTATCATGGACCGGTTTTCCCGGTAATCCGTATTTGTC (site CCCTTATCTGA) next
Ans. YES

Qu. Next up: CAAAGAACATGGACCGGTTTTCCCGGTAATCCGTATTTGCG (site CAAAGAACTCG)
Ans. YES

Qu. How about GCGCATGCATGGACCGGTTTTCCCGGTAATCCGTATTTGGT (site GCGCATGCTAC) ?
Ans. YES

Qu. Likewise for CAGTCGACATGGACCGGTTTTCCCGGTAATCCGTATTTGGA (site CAGTCGACTAC) ?
Ans. NO

Qu. // same read-out, input: GCAAAAACATGGACCGGTTTTCCCGGTAATCCGTATTTGCT (site GCAAAAACTAG)
Ans. NO

Qu. Subsequent entry: TGGTAGGCATGGACCGGTTTTCCCGGTAATCCGTATTTGGT (site TGGTAGGCTAC)
Ans. YES

Qu. And then CGAGCGCCATGGACCGGTTTTCCCGGTAATCCGTATTTGTG (site CTAGCGCCTCA) , what is it?
Ans. NO

Qu. Note, next up: GTTTGCGCATGGACCGGTTTTCCCGGTAATCCGTATTTGTC (site GTTTGCGCTGA)
Ans. YES

Qu. Likewise for CGAGAACCATGGACCGGTTTTCCCGGTAATCCGTATTTGAT (site CGGGAACCTAT) ?
Ans. NO

Qu. Can you check TAGCTAGCATGGACCGGTTTTCCCGGTAATCCGTATTTGAA (site TAGCTCGCTTT) next?
Ans. NO

Qu. Again, but for GTCCCCGCATGGACCGGTTTTCCCGGTAATCCGTATTTGAG (site GTCCCCGCTCT)
Ans. NO

Qu. Entry to check: TGCCCGGCATGGACCGGTTTTCCCGGTAATCCGTATTTGGC (site TGACCGGCTGC)
Ans. NO

Qu. Likewise for CATGGAACATGGACCGGTTTTCCCGGTAATCCGTATTTGTT (site CATGGAACTAA) ?
Ans. YES

Qu. Please do the same for GTAGGCACATGGACCGGTTTTCCCGGTAATCCGTATTTGAC (site GTAGGCACTGT) as well.
Ans. YES

Qu. Now this one: AACCGCCCATGGACCGGTTTTCCCGGTAATCCGTATTTGAT (site AACCGTCCTAT)
Ans. NO

Qu. Record: GTGGAGGCATGGACCGGTTTTCCCGGTAATCCGTATTTGTA (site GTGGAGGCTTA)
Ans. YES

Qu. Also, CCCTTCTCATGGACCGGTTTTCCCGGTAATCCGTATTTGGA (site CCCTTCTCTGC) please.
Ans. NO

Qu. Likewise for CCTACTGCATGGACCGGTTTTCCCGGTAATCCGTATTTGCC (site GCTACTGCTGG) ?
Ans. NO

Qu. Now try ATAAGGCCATGGACCGGTTTTCCCGGTAATCCGTATTTGAC (site AGAAGGCCTGT) .
Ans. NO

Qu. Proceed to GTAGTCACATGGACCGGTTTTCCCGGTAATCCGTATTTGCG (site GTAGTCACTCG)
Ans. YES

Qu. Also ACAGTTTCATGGACCGGTTTTCCCGGTAATCCGTATTTGCA (site ACAGTATCTTG) , if possible.
Ans. YES

Qu. Follow-up item: TGAAGCGCATGGACCGGTTTTCCCGGTAATCCGTATTTGCT (site TGAAGCGCTAG)
Ans. YES

Qu. Likewise for TAGCCTTCATGGACCGGTTTTCCCGGTAATCCGTATTTGTT (site TAGCCTTCTAT) ?
Ans. NO

Qu. Repeat for the following sequence: GTTGTTACATGGACCGGTTTTCCCGGTAATCCGTATTTGGT (site GTTGTTCCTAC)
Ans. NO

Qu. What about this sequence? ATGACTACATGGACCGGTTTTCCCGGTAATCCGTATTTGAC (site ATGACTACTGT)
Ans. YES

Qu. Follow-up entry: CGCTCATCATGGACCGGTTTTCCCGGTAATCCGTATTTGGT (site CGCTCATCTAC)
Ans. YES

Qu. Then what about the sequence AGAAAAGCATGGACCGGTTTTCCCGGTAATCCGTATTTGCT (site AGAAAAGCTAG) ?
Ans. YES

Qu. Do the same for CAAGTATCATGGACCGGTTTTCCCGGTAATCCGTATTTGTC (site CTAGTATCTGT) please
Ans. NO

Qu. And CACGGCCCATGGACCGGTTTTCCCGGTAATCCGTATTTGGT (site CACGGCCCTAC) ?
Ans. NO

Qu. Another: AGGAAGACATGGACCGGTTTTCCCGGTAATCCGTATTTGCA (site CGGTAGACTTG)
Ans. YES

Qu. Try this sequence next: GATTGTACATGGACCGGTTTTCCCGGTAATCCGTATTTGAC (site GATTGGACTGT)
Ans. NO

Qu. What do you have for CCGTCGGCATGGACCGGTTTTCCCGGTAATCCGTATTTGTG (site CCGTCGGCTCA) ?
Ans. NO

Qu. Entry AAATTCCCATGGACCGGTTTTCCCGGTAATCCGTATTTGCT (site GAATTCCCTAG) please
Ans. NO

Qu. Here is the next sequence: ATAGCTGCATGGACCGGTTTTCCCGGTAATCCGTATTTGTG (site ATAGCTGCTCA)
Ans. YES

Qu. Also CGGAATTCATGGACCGGTTTTCCCGGTAATCCGTATTTGCT (site CGGAATTCTAG) , if possible.
Ans. YES

====

I'd appreciate it if you could supply recombinant UMI read abundance (log10) values for the items below.
- procedure summary: recombinant UMI read abundance after kanamycin selection (control-corrected) (log10(CPM+1)); higher = more efficient recombination; extreme values may be limits of the assay; sequences stand for … in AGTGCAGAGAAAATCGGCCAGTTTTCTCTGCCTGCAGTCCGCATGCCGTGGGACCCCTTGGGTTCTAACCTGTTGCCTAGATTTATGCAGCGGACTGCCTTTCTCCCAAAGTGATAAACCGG…AGGTTGGTTTCACT; site = the 11-nt donor
# print the numeric value only

Qu. Name the recorded recombinant UMI read abundance (log10) for CCCTAGCCATGGACCGGTTTTCCCGGTAATCCGTATTTGTC (site CCCTAGCCTGC) .
Ans. 0

Qu. Field entry: CCGTTTACATGGACCGGTTTTCCCGGTAATCCGTATTTGCC (site CCGTTTACTAG)
Ans. 0

Qu. Okay, and AGGACTACATGGACCGGTTTTCCCGGTAATCCGTATTTGTC (site AGGACTACTGC) ?
Ans. 0

Qu. How about this sequence: CAGTCGACATGGACCGGTTTTCCCGGTAATCCGTATTTGGG (site CAGTCGACTAC)
Ans. 0.0109

Qu. Then this sequence: CTGTCGACATGGACCGGTTTTCCCGGTAATCCGTATTTGGG (site CAGTCGACTCC)
Ans. 0.00865

Qu. GTCACGACATGGACCGGTTTTCCCGGTAATCCGTATTTGAC (site GTCACGACTGT) , same question.
Ans. 1.96

Qu. Lookup TCGACACCATGGACCGGTTTTCCCGGTAATCCGTATTTGGC (site TCGACACCTGC)
Ans. 0

Qu. Next entry: ACCATATCATGGACCGGTTTTCCCGGTAATCCGTATTTGTC (site CCCATATCTGA)
Ans. 0

Qu. What do you get for GAAAGGCCATGGACCGGTTTTCCCGGTAATCCGTATTTGCA (site GAACGGCCTTG) ?
Ans. 0

====

- procedure summary: recombinant UMI read abundance after kanamycin selection (control-corrected) (log10(CPM+1)); higher = more efficient recombination; extreme values may be limits of the assay; sequences stand for … in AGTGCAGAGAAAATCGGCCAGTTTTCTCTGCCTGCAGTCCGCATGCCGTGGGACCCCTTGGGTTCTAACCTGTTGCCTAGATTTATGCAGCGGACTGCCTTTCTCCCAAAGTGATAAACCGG…AGGTTGGTTTCACT; site = the 11-nt donor
readout label: recombinant UMI read abundance (log10)
Just the number, please, no unit attached.

Qu. Tell me the measured recombinant UMI read abundance (log10) of ATTGTAACATGGACCGGTTTTCCCGGTAATCCGTATTTGCT (site AGTGTAACTAG) , please.
Ans. 1.5

Qu. Same read-out for GTTGTTCCATGGACCGGTTTTCCCGGTAATCCGTATTTGGC (site GTTGTTCCTCC) ?
Ans. 0.0108

Qu. Param item: GCAGGTGCATGGACCGGTTTTCCCGGTAATCCGTATTTGAT (site ACAGGTGCTAT)
Ans. 2.52

Qu. Entry to check: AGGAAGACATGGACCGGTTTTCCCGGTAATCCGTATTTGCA (site GGCAAGACTTG)
Ans. 2.22

Qu. Proceed to GGTCAAACATGGACCGGTTTTCCCGGTAATCCGTATTTGTA (site GGTCGAACTTA)
Ans. 0.00424

Qu. Now give it for AAAAGTCCATGGACCGGTTTTCCCGGTAATCCGTATTTGTA (site GAAAGTCCTTA) too.
Ans. 0.273

Qu. For CCCGGTCCATGGACCGGTTTTCCCGGTAATCCGTATTTGCA (site CTCGGTCCTTG) then?
Ans. 0.00601

Qu. Next record, please: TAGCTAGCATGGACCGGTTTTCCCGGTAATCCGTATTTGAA (site TAGCTTGCTTT)
Ans. 0.00961

Qu. Next sequence up: ACAGTATCATGGACCGGTTTTCCCGGTAATCCGTATTTGCT (site ACAGTATCTTG)
Ans. 2.22

Qu. Queued: GTGGAGCCATGGACCGGTTTTCCCGGTAATCCGTATTTGTG (site GTGGAGGCTCA)
Ans. 0.00706

Qu. Would you kindly repeat that for TAACGCACATGGACCGGTTTTCCCGGTAATCCGTATTTGTA (site TAACGCACTTA) ?
Ans. 1.61

Qu. Then what about the sequence TAGCCTACATGGACCGGTTTTCCCGGTAATCCGTATTTGGT (site TAGCCTTCTAC) ?
Ans. 0.0222

Qu. // next record AGGCAGACATGGACCGGTTTTCCCGGTAATCCGTATTTGCT (site AGGCAGACTAG)
Ans. 2.13

Qu. For GGTTATCCATGGACCGGTTTTCCCGGTAATCCGTATTTGCT (site GATTATCCTAG) then?
Ans. 0

Qu. Lookup CCGTTCTCATGGACCGGTTTTCCCGGTAATCCGTATTTGGG (site CCCTTCTCTCC)
Ans. 0

Qu. What do you have for TAGCCTTCATGGACCGGTTTTCCCGGTAATCCGTATTTGTT (site TAGCCTTCTAC) ?
Ans. 0.0119

Qu. Also CTGGATACATGGACCGGTTTTCCCGGTAATCCGTATTTGCA (site CTGGAGACTTG) , if possible.
Ans. 0.473

Qu. Then this sequence: AGGACTACATGGACCGGTTTTCCCGGTAATCCGTATTTGAG (site AGGACTACTGT)
Ans. 0
